Overview of recorded pIC50 for various compounds
Molecular target: HEKn (EGFR WT) (Homo sapiens)
Sequence (P00533 25-1210): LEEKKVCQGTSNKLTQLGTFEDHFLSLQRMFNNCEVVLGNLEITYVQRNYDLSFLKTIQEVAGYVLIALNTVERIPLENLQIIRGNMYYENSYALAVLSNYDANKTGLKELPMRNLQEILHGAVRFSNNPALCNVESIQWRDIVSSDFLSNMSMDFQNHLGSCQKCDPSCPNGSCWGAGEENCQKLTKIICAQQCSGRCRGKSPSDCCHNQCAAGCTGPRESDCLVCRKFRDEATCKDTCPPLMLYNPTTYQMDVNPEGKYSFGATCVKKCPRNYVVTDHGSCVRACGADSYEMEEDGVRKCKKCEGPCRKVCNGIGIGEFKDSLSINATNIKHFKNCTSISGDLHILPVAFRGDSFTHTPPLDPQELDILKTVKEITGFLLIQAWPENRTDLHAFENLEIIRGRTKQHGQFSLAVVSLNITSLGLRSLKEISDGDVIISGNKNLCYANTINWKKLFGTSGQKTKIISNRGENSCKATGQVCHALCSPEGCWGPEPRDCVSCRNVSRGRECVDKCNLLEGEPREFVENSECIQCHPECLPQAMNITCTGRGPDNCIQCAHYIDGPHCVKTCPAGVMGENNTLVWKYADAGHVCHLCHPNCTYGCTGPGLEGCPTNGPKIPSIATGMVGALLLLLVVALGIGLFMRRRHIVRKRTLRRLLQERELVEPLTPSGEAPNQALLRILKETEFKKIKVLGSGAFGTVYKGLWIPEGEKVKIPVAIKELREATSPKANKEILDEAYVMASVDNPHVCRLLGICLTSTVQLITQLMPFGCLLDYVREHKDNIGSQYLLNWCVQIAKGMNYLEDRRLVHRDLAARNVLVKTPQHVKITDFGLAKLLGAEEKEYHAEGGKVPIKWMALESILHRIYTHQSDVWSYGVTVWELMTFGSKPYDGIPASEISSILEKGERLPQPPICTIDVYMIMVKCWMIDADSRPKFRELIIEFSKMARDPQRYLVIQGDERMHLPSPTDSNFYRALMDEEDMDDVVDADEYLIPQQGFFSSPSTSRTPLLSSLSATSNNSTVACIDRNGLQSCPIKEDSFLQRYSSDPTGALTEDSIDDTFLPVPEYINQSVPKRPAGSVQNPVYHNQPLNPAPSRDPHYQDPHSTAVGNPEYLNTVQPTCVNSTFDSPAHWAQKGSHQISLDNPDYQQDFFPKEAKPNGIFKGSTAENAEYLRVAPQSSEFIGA
Experiment: EGFR target modulation in HEKn (EGFR-WT) cell line (phospho-EGFR Y1173 ELISA)
Details: value outside parentheses
pIC50: −log10 of the molar value.

The compound identified as "C=CC(=O)N1CCC[C@@H](n2c(NC(=O)c3cccc(C(F)(F)F)c3)nc3cccc(C)c32)C1" registered its pIC50 at < 5.00

Per the records, this compound ( "C=CC(=O)N1CCC[C@@H](n2c(NC(=O)c3cccc(C(F)(F)F)c3)nc3cc(CN(C)C(C)=O)ccc32)C1" ) has pIC50 equal to < 5.16

Reported pIC50 ( "C=CC(=O)N1CCC[C@@H](n2c(NC(=O)c3cccc(C(F)(F)F)c3)nc3cc(C(N)=O)ccc32)C1" ) = < 5.00

Reported pIC50 of "C=CC(=O)N1CCC[C@@H](n2c(NC(=O)c3ccccc3)nc3cccc(C)c32)C1" : < 5.00

* * *

Quick reference: log10 IC50 of the listed items.
Target: human EGFR L858R (NIH/3T3 cells) (Homo sapiens, UniProt P00533, L858R)
Sequence (P00533 25-1210 L858R): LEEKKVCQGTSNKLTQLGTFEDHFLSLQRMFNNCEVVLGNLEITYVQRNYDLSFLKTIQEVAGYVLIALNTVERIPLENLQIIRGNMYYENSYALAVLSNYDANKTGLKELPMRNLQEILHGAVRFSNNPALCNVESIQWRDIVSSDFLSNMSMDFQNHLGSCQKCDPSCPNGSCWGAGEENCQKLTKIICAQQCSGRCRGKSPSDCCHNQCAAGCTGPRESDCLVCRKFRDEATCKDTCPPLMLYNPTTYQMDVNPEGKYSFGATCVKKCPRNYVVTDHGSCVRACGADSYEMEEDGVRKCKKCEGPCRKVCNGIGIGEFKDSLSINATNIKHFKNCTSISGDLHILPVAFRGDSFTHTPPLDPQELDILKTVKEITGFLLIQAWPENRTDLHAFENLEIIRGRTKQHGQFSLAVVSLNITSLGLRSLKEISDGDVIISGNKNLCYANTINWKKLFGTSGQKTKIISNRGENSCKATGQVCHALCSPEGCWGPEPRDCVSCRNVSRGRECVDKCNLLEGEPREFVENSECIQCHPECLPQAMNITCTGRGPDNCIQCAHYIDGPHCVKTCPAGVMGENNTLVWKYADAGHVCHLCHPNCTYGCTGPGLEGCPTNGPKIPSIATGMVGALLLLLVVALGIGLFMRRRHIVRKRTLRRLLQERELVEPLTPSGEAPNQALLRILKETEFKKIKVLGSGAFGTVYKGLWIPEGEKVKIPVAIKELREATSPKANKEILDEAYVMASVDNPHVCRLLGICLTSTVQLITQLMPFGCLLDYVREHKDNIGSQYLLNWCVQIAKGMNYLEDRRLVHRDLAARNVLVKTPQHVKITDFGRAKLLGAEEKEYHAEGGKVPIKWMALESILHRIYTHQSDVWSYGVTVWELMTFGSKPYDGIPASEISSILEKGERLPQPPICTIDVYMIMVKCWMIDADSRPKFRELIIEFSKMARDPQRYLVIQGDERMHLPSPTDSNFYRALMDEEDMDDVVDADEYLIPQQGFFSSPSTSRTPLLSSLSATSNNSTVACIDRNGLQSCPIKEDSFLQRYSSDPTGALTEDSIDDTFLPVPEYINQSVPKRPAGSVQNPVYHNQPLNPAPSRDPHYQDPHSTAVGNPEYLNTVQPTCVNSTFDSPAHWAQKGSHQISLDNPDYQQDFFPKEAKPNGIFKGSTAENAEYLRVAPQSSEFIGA
Assay: EGFR target modulation in engineered NIH/3T3 cell lines (phospho-EGFR Y1068 AlphaLISA), EGFR L858R
Type: cell-based
Conditions: engineered NIH/3T3 cells, read-out: NIH3T3 IC50 (μM) EGFR (L858R)
In our notation, the value equals log10 of IC50 in µM.

Examples with answers:
Cc1cccc2nc(NC(=O)c3cccnn3)n(C3CCCCN(C(=O)/C=C/CN(C)C)C3)c12 (stereo not shown) [Example 17-39] :: -0.66
C=CC(=O)N1CCCC[C@@H](n2c(NC(=O)c3cccc(C(F)(F)F)c3)nc3cccc(C(F)(F)F)c32)C1 [Example 17-12] :: -1.28
C=CS(=O)(=O)N1CCCCC(n2c(NC(=O)c3cccc(C(F)(F)F)c3)nc3cccc(C)c32)C1 (stereo not shown) [Example 10] :: -0.47
Cc1cccc2nc(NC(=O)c3ccco3)n(C3CCCCN(C(=O)/C=C/CN(C)C)C3)c12 (stereo not shown) [Example 17-56] :: -1.77
C=CC(=O)N1CCCC(n2c(NC(=O)c3cccc(C(F)(F)F)c3)nc3cnccc32)C1 (stereo not shown) [Example 17-8] :: 0.74
Cc1ncc(C(=O)Nc2nc3cccc(C)c3n2C2CCCCN(C(=O)/C=C/CN(C)C)C2)s1 (stereo not shown) [Example 17-64] :: -2.70

Reported log10 IC50 ( C=CC(=O)N1CCC[C@@H](n2c(NC(=O)c3cccc(C(F)(F)F)c3)nc3cc(C)ccc32)C1 [Example 17-105] ) = -0.83

// log10 IC50 value for Cc1cc(C(=O)Nc2nc3cccc(Cl)c3n2[C@@H]2CCCCN(C(=O)/C=C/CN3CCC(F)(F)C3)C2)ccn1 [Example 3-3] : -0.80

// recorded log10 IC50 for C=CC(=O)N1CCCC[C@@H](n2c(NC(=O)c3ccnnc3)nc3cccc(Cl)c32)C1 [Example 17-15] : -1.77

Noted for Cc1cccc2nc(NC(=O)c3ccccn3)n(C3CCCCN(C(=O)/C=C/CN(C)C)C3)c12 (stereo not shown) [Example 17-34] : its log10 IC50 reads -0.28

# log10 IC50 of Cc1cccc2nc(NC(=O)c3cccc(C(F)(F)F)c3)n(C3CCCCN(C(=O)/C=C/CN(C)C)C3)c12 (stereo not shown) [Example 17-25] = -2.70

log10 IC50 reading for Cc1cccc2nc(NC(=O)c3cncc(C(F)(F)F)c3)n([C@@H]3CCCCN(C(=O)/C=C/CN(C)C)C3)c12 [Example 17-67] : -2.40

log10 IC50 in this record for Cc1cccc2nc(NC(=O)c3cc(Cl)nc(OC(F)(F)F)c3)n([C@@H]3CCCCN(C(=O)/C=C/CN(C)C)C3)c12 [Example 17-104] : -1.64

The molecule listed as C=CC(=O)N1CCCC(n2c(NC(=O)c3cccc(C(F)(F)F)c3)nc3c2CCN(C(=O)OC)C3)C1 (stereo not shown) [Example 17-167] shows log10 IC50 equal to 0.68

* * *

Biological target: EGFR(L858R/T790M) (Homo sapiens, UniProt P00533, L858R/T790M)
Construct: purchased from Carna (GST-a.a. 669-1210)
Sequence (P00533 669-1210 T790M/L858R): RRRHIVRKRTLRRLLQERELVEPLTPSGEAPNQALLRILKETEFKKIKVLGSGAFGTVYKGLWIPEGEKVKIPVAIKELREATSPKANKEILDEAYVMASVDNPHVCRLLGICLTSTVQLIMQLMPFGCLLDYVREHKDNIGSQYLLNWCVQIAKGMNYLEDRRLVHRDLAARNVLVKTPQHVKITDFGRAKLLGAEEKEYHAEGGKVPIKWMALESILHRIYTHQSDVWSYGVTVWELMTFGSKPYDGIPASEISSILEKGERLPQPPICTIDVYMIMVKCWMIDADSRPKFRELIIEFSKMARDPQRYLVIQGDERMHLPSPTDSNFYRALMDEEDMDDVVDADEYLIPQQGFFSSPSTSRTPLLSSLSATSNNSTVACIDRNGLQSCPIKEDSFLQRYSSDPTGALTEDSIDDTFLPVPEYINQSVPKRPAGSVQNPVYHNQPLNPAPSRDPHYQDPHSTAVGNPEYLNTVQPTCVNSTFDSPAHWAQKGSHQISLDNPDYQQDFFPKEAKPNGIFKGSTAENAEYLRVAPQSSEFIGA
Assay: EGFR biochemical assay (HTRF), IC50 determinations
Conditions: EGFR (L858R/T790M) with 90 min pre-incubation; read-out: IC50 (μM) Column B
assay.metric: IC50

Cc1cc(C(=O)Nc2nc3cccc(C)c3n2[C@@H]2CCCCN(C(=O)/C=C/CN(C)C)C2)cnn1 [Example 17-82] :: < 0.001 µM
Cc1cccc2nc(NC(=O)c3cccc(C(F)(F)F)c3)n(C3CCCCN(C(=O)/C=C/CN(C)C)C3)c12 (centres unmarked) [Example 17-25] :: < 0.001 µM
Cc1cccc2nc(NC(=O)c3cc(F)ccc3F)n(C3CCCCN(C(=O)/C=C/CN(C)C)C3)c12 (centres unmarked) [Example 17-29] :: < 0.001 µM

Entry under test: COc1ccc(C(=O)Nc2nc3cccc(C)c3n2C2CCCCN(C(=O)/C=C/CN(C)C)C2)cn1 (centres unmarked) [Example 17-45] . Its IC50 was < 0.001 µM

Value of IC50 reported for the molecule Cc1cccc2nc(NC(=O)c3cncc(C(F)(F)F)c3)n([C@@H]3CCCCN(C(=O)/C=C/CN(C)C)C3)c12 [Example 17-67] is < 0.001 µM

* * *

Target: H1975 (EGFR L858/T790M) (Homo sapiens, UniProt P00533, L858R/T790M)
Sequence (P00533 25-1210 T790M/L858R): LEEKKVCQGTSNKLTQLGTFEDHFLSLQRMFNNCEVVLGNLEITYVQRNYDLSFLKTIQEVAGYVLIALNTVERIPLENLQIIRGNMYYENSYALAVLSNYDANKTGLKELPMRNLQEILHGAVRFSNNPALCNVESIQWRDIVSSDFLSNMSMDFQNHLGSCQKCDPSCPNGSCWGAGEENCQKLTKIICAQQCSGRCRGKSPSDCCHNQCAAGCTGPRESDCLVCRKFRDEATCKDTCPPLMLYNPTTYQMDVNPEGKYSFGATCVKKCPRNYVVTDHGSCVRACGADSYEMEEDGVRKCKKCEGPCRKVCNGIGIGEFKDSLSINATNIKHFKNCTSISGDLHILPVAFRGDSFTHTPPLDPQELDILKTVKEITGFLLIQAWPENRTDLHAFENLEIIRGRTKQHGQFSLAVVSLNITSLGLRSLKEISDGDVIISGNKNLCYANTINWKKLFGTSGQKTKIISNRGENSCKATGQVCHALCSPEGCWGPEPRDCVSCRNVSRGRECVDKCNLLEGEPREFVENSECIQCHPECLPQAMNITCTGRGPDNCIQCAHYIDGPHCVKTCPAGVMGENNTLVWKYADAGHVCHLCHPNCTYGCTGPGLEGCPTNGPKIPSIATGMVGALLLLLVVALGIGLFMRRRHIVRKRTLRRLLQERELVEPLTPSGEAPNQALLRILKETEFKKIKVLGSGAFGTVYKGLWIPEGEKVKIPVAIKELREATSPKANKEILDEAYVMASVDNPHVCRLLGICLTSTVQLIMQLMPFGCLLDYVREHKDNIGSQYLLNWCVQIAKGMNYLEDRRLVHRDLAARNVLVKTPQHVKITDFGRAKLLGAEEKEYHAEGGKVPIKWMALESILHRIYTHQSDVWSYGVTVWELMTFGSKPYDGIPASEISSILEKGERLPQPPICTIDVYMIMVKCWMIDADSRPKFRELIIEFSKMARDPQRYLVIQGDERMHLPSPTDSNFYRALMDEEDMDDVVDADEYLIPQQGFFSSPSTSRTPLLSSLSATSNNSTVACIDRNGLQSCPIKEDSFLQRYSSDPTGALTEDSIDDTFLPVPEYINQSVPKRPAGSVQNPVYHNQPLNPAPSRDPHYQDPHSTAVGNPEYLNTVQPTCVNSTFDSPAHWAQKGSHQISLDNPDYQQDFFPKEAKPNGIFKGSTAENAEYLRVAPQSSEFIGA
Experiment: EGFR target modulation in H1975 cell line (phospho-EGFR Y1173 ELISA)
IC50 strictly under 3 nM means fulfilled; at 3 nM or over means not fulfilled.

C=CC(=O)N1CCCC[C@@H](n2c(NC(=O)c3ccccc3)nc3cccc(CN4CCS(=O)(=O)CC4)c32)C1 :: not fulfilled

Hi there! Is IC50 for "COc1cccc2nc(NC(=O)c3ccnnc3)n([C@@H]3CCCCN(C(=O)/C=C/CN(C)C)C3)c12" below 3 nM, do you know? not fulfilled

Lab log: compare recorded IC50 with 3 nM; is it strictly lower for "COc1cc(C(=O)Nc2nc3cccc(C)c3n2[C@@H]2CCCCN(C(=O)/C=C/CN(C)C)C2)cc(Cl)n1" ? not fulfilled

State whether 3 nM exceeds IC50 recorded for "Cc1cccc2nc(NC(=O)c3ccnc(-c4ccccc4)c3)n([C@@H]3CCCCN(C(=O)/C=C/CN(C)C)C3)c12" . fulfilled

* * *

Target: EGFR(L858R/T790M) (Homo sapiens, UniProt P00533, L858R/T790M)
Construct: purchased from Carna (GST-a.a. 669-1210)
Assay: EGFR biochemical assay (HTRF), IC50 determinations
Conditions: EGFR (L858R/T790M) with 90 min pre-incubation; read-out: IC50 (μM) Column B
Entries and their measured IC50 follow.
All answers are understood in µM, so give the number only.

CC#CC(=O)N1CCCCC(n2c(NC(=O)c3cccc(C(F)(F)F)c3)nc3cccc(C)c32)C1 (stereo not shown) :: 0.007

Okay, next one:
IC50 reported for this compound "C=CC(=O)N1CCC[C@@H](n2c(NC(=O)c3cccc(C(F)(F)F)c3)nc3cc(COCCOC)ccc32)C1" : 0.008

* * *

Target: human EGFR WT (NIH/3T3 cells, EGF-induced) (Homo sapiens, UniProt P00533)
Assay: EGFR target modulation in engineered NIH/3T3 cell lines (phospho-EGFR Y1068 AlphaLISA), EGFR WT
Format: cell-based
Settings: engineered NIH/3T3 cells, read-out: NIH3T3 IC50 (μM) EGFR (WT)
Description: EGFR Target Modulation in Engineered NIH/3T3 Cell Lines Tissue Culture. The cells were harvested with 0.05% Trypsin/EDTA (Hyclone #SH30236.01), re-suspended in 5% FBS/DMEM Pen/Strep without Puromycin and plated at 9,000 cells per well in 50 μl of media in a 384-well black plate with clear bottoms (Greiner #789068G). […] With these parameters, the IC50's for each compound in each cell line was calculated using non-linear curve fitting analysis.
molecules and their reported IC50
Give the number; µM is assumed, so skip it.

Some solved cases for reference:
Cc1cc(C(=O)Nc2nc3cccc(C)c3n2C2CCCCN(C(=O)/C=C/CN(C)C)C2)oc1C (centres unmarked) :: 0.37
C=CC(=O)N1CCCC[C@@H](n2c(NC(=O)c3ccnc(C)c3)nc3cc(CN4CCC4)cc(C)c32)C1 :: 0.026

Given item "Cc1cccc2nc(NC(=O)c3cncc(-n4cccc4)c3)n([C@@H]3CCCCN(C(=O)/C=C/CN(C)C)C3)c12" , the value recorded as its IC50 is 0.035

IC50 reading for Cc1cccc2nc(NC(=O)c3cc(F)ccc3F)n(C3CCCCN(C(=O)/C=C/CN(C)C)C3)c12 (centres unmarked) : 0.82

Lookup result for "COc1cc(C(=O)Nc2nc3cccc(C)c3n2[C@@H]2CCCCN(C(=O)/C=C/CN(C)C)C2)ccn1" ; measured IC50: 0.029

Short answer for Cc1cccc2nc(NC(=O)c3ccc(F)c(F)c3)n(C3CCCCN(C(=O)/C=C/CN(C)C)C3)c12 (centres unmarked) : IC50 was 0.167

Noted for "C=CC(=O)N1CCCC[C@@H](n2c(NC(=O)c3cccc(C(F)(F)F)c3)nc3ccccc32)C1" : its IC50 reads 0.43
